# ASSAY_PROTOCOL: Resistance ratio of EC90 for NS5A in HCV genotype 4a infected in HuH7 replicon cells to EC90 for NS5A in HCV genotype 1a infected in HuH7 replicon cells
# Type: cell-based
READOUT_NAME: Ratio

Sample records with Ratio:
COC(=O)N[C@H](C(=O)N1CCC[C@H]1c1ncc(-c2cc(F)c3c(c2)O[C@@H](c2ccc4c(c2)CCCO4)n2c-3cc3cc(-c4cnc([C@@H]5CCCN5C(=O)[C@@H](NC(=O)OC)C5CCOCC5)[nH]4)ccc32)[nH]1)C(C)C :: < 10
COC(=O)N[C@H](C(=O)N1CCC[C@H]1c1ncc(-c2cc(F)c3c(c2)O[C@@H](c2ccc(C(F)F)s2)n2c-3cc3cc(-c4cnc([C@@H]5CCCN5C(=O)[C@@H](NC(=O)OC)C5CCOCC5)[nH]4)ccc32)[nH]1)C(C)C :: < 10
COC(=O)N[C@H](C(=O)N1CCC[C@H]1c1ncc(-c2cc(F)c3c(c2)O[C@@H](c2ccc4c(c2)OCCC4)n2c-3cc3cc(-c4cnc([C@@H]5CCCN5C(=O)[C@@H](NC(=O)OC)C5CCOCC5)[nH]4)ccc32)[nH]1)C(C)C :: < 10

Please go through the list and note Ratio for each molecule.
1. CCCc1ccc([C@@H]2Oc3cc(-c4cnc([C@@H]5CCCN5C(=O)[C@@H](NC(=O)OC)C(C)C)[nH]4)cc(F)c3-c3cc4cc(-c5cnc([C@@H]6CCCN6C(=O)[C@@H](NC(=O)OC)C6CCOCC6)[nH]5)ccc4n32)s1
2. COC(=O)N[C@H](C(=O)N1CCC[C@H]1c1ncc(-c2cc(F)c3c(c2)O[C@@H](c2ccc(C4CC4)s2)n2c-3cc3cc(-c4cnc([C@@H]5CCCN5C(=O)[C@@H](NC(=O)OC)C5CCOCC5)[nH]4)ccc32)[nH]1)C(C)C
3. COC(=O)N[C@H](C(=O)N1CCC[C@H]1c1ncc(-c2cc(F)c3c(c2)O[C@@H](c2cc4c(s2)CCC4)n2c-3cc3cc(-c4cnc([C@@H]5CCCN5C(=O)[C@@H](NC(=O)OC)C5CCOCC5)[nH]4)ccc32)[nH]1)C(C)C

1. < 10
2. < 10
3. < 10

----------
# SUBJECT_OF_TEST: Nonstructural protein 5A (Hepatitis C virus) (UniProt Q5L478)
# Sequence (whole entry): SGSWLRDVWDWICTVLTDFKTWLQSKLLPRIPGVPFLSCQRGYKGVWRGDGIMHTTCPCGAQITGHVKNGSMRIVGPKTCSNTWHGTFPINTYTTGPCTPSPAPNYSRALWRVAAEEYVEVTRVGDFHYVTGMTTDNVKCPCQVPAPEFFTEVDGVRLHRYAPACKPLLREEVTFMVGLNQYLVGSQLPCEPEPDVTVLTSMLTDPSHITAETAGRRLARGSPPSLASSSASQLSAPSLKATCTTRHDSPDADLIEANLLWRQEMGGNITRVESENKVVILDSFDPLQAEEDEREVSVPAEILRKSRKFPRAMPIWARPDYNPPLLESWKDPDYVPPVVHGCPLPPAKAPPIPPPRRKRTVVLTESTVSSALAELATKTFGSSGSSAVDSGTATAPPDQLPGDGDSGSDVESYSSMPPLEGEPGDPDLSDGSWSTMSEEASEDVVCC
# ASSAY_PROTOCOL: Inhibition of NS5A in HCV genotype 4a infected in HuH7 replicon cells assessed as decrease in viral replication after 3 days by RT-PCR method
# Type: cell-based
# MEASUREMENT_CONTEXT: Hepatitis C virus subtype 4a
READOUT_NAME: EC90

COC(=O)N[C@H](C(=O)N1CCC[C@H]1c1ncc(-c2cc(F)c3c(c2)O[C@@H](c2ccc4c(c2)O[C@@H](C)CC4)n2c-3cc3cc(-c4cnc([C@@H]5CCCN5C(=O)[C@@H](NC(=O)OC)[C@@H]5CCOC(C)(C)C5)[nH]4)ccc32)[nH]1)C(C)C :: 8 pM
COC(=O)N[C@H](C(=O)N1CCC[C@H]1c1ncc(-c2cc(F)c3c(c2)O[C@@H](c2ccc(C4CC4)s2)n2c-3cc3cc(-c4cnc([C@@H]5CCCN5C(=O)[C@@H](NC(=O)OC)C5CCOCC5)[nH]4)ccc32)[nH]1)C(C)C :: 5 pM
COC(=O)N[C@H](C(=O)N1CCC[C@H]1c1ncc(-c2cc(F)c3c(c2)O[C@@H](c2ccc(C4CC4)s2)n2c-3cc3cc(-c4cnc([C@@H]5CCCN5C(=O)[C@@H](NC(=O)OC)C5CCOC6(CC6)C5)[nH]4)ccc32)[nH]1)C(C)C (stereo partly drawn) :: 4 pM
COC(=O)N[C@H](C(=O)N1CCC[C@H]1c1ncc(-c2ccc3c(c2)cc2n3[C@H](c3ccc(C4CC4)s3)Oc3cc(-c4cnc([C@@H]5CCCN5C(=O)[C@@H](NC(=O)OC)[C@@H]5CCOC(C)(C)C5)[nH]4)cc(F)c3-2)[nH]1)C(C)C :: 4 pM
COC(=O)N[C@H](C(=O)N1CCC[C@H]1c1ncc(-c2cc(F)c3c(c2)O[C@@H](c2cc4ccccc4s2)n2c-3cc3cc(-c4cnc([C@@H]5CCCN5C(=O)[C@@H](NC(=O)OC)C5CCOCC5)[nH]4)ccc32)[nH]1)C(C)C :: 4 pM
CCCc1ccc([C@@H]2Oc3cc(-c4cnc([C@@H]5CCCN5C(=O)[C@@H](NC(=O)OC)C(C)C)[nH]4)cc(F)c3-c3cc4cc(-c5cnc([C@@H]6CCCN6C(=O)[C@@H](NC(=O)OC)[C@@H]6CCOC(C)(C)C6)[nH]5)ccc4n32)s1 :: 11 pM

Please go through the list and note EC90 for each molecule.
1. COC(=O)N[C@H](C(=O)N1CCC[C@H]1c1ncc(-c2cc(F)c3c(c2)O[C@@H](c2ccc(C(F)F)s2)n2c-3cc3cc(-c4cnc([C@@H]5CCCN5C(=O)[C@@H](NC(=O)OC)C5CCOCC5)[nH]4)ccc32)[nH]1)C(C)C
2. COC(=O)N[C@H](C(=O)N1CCC[C@H]1c1ncc(-c2ccc3c(c2)cc2n3[C@H](c3ccc4c(c3)OCCN4C)Oc3cc(-c4cnc([C@@H]5CCCN5C(=O)[C@@H](NC(=O)OC)C5CCOCC5)[nH]4)cc(F)c3-2)[nH]1)C(C)C

1. 4 pM
2. 9 pM

----------
# ASSAY_PROTOCOL: Resistance ratio of EC90 for NS5A in HCV genotype 3a infected in HuH7 replicon cells to EC90 for NS5A in HCV genotype 1a infected in HuH7 replicon cells
# Format: cell-based
Exercise: for every item that follows, state its recorded Ratio.

Sample records with Ratio:
COC(=O)N[C@H](C(=O)N1CCC[C@H]1c1ncc(-c2cc(F)c3c(c2)O[C@@H](c2ccc(C(F)(F)F)s2)n2c-3cc3cc(-c4cnc([C@@H]5CCCN5C(=O)[C@@H](NC(=O)OC)C5CCOCC5)[nH]4)ccc32)[nH]1)C(C)C :: < 10
COC(=O)N[C@H](C(=O)N1CCC[C@H]1c1ncc(-c2cc(F)c3c(c2)O[C@@H](c2ccc(C4CC4)s2)n2c-3cc3cc(-c4cnc([C@@H]5CCCN5C(=O)[C@@H](NC(=O)OC)C5CCOCC5)[nH]4)ccc32)[nH]1)C(C)C :: < 10
CCCc1ccc([C@@H]2Oc3cc(-c4cnc([C@@H]5CCCN5C(=O)[C@@H](NC(=O)OC)C(C)C)[nH]4)cc(F)c3-c3cc4cc(-c5cnc([C@@H]6CCCN6C(=O)[C@@H](NC(=O)OC)C6CCOCC6)[nH]5)ccc4n32)s1 :: < 10
COC(=O)N[C@H](C(=O)N1CCC[C@H]1c1ncc(-c2cc(F)c3c(c2)O[C@@H](c2ccc(C4CC4)s2)n2c-3cc3cc(-c4cnc([C@@H]5CCCN5C(=O)[C@@H](NC(=O)OC)[C@@H]5CCOC(C)(C)C5)[nH]4)ccc32)[nH]1)C(C)C :: 2
COC(=O)N[C@H](C(=O)N1CCC[C@H]1c1ncc(-c2cc(F)c3c(c2)O[C@@H](c2ccc4c(c2)OCCC4)n2c-3cc3cc(-c4cnc([C@@H]5CCCN5C(=O)[C@@H](NC(=O)OC)C5CCOCC5)[nH]4)ccc32)[nH]1)C(C)C :: < 10

Please go through the list and note Ratio for each molecule.
1. COC(=O)N[C@H](C(=O)N1CCC[C@H]1c1ncc(-c2cc(F)c3c(c2)O[C@@H](c2ccc(C(F)F)s2)n2c-3cc3cc(-c4cnc([C@@H]5CCCN5C(=O)[C@@H](NC(=O)OC)C5CCOCC5)[nH]4)ccc32)[nH]1)C(C)C
2. COC(=O)N[C@H](C(=O)N1CCC[C@H]1c1ncc(-c2cc(F)c3c(c2)O[C@@H](c2cc4c(s2)CCC4)n2c-3cc3cc(-c4cnc([C@@H]5CCCN5C(=O)[C@@H](NC(=O)OC)C5CCOCC5)[nH]4)ccc32)[nH]1)C(C)C
3. COC(=O)N[C@H](C(=O)N1CCC[C@H]1c1ncc(-c2cc(F)c3c(c2)O[C@@H](c2ccc4c(c2)CCCO4)n2c-3cc3cc(-c4cnc([C@@H]5CCCN5C(=O)[C@@H](NC(=O)OC)C5CCOCC5)[nH]4)ccc32)[nH]1)C(C)C

["< 10", "< 10", "< 10"]
